Reported values of DC50 for individual entries
# tested.on: KRAS G12V (Homo sapiens (Human), UniProt P01116, G12V)
# Sequence (P01116-2 other isoform, or with tags, fused parts or gaps G12V): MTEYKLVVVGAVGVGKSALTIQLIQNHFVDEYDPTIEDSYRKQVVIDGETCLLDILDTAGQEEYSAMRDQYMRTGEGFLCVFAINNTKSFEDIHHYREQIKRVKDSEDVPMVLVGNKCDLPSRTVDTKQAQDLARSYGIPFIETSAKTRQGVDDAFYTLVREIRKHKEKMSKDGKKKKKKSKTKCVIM
# experimental.protocol: KRAS G12V degradation in SW620 cells (Western blot, DC50)
# Type: cell-based
# reported.conditions: 24 hours

* CCc1c(F)ccc2cc(O)cc(-c3ncc4c(N5CCC[C@@](C)(O)C5)nc(OCC5(CN6CC7(CC(N8CCN(c9ccc%10c(c9)CN([C@H]9CCC(=O)NC9=O)C%10=O)CC8)C7)C6)CC5)nc4c3F)c12 | 1 to 10 nM
* CCc1cccc2cc(O)cc(-c3ncc4c(N5CCOC[C@](C)(O)C5)nc(OCC5(CN6CCC7(CC6)CC(CN6CCN(c8ccc9c(c8)CN([C@H]8CCC(=O)NC8=O)C9=O)CC6)C7)CC5)nc4c3F)c12 | > 100 nM
* CCc1c(F)ccc2cc(O)cc(-c3ncc4c(N5CCC[C@@]6(CCO6)C5)nc(OCC5(CN6CCC(CN7CCN(c8ccc9c(c8)CN(C8CCC(=O)NC8=O)C9=O)CC7)CC6)CC5)nc4c3F)c12 (some centres unmarked) | > 100 nM

Request: DC50, test system KRAS G12V (Homo sapiens (Human), UniProt P01116, G12V), entry `CCc1c(F)ccc2cc(O)cc(-c3ncc4c(N5CCC[C@@](C)(O)C5)nc(OCC5(CN6CCN(CC7CCN(c8ccc9c(c8)CN([C@H]8CCC(=O)NC8=O)C9=O)CC7)CC6)CC5)nc4c3F)c12` < 1 nM

Request: DC50, test system KRAS G12V (Homo sapiens (Human), UniProt P01116, G12V), entry CCc1c(F)ccc2cc(O)cc(-c3ncc4c(N5CCC[C@@](C)(O)C5)nc(OCC5(CN6CCN(C7CCC8(CC7)CCN(c7ccc9c(c7)CN(C7CCC(=O)NC7=O)C9=O)CC8)CC6)CC5)nc4c3F)c12 (some centres unmarked) > 100 nM

====

# tested.on: KRAS G12V (Homo sapiens (Human), UniProt P01116, G12V)
# experimental.protocol: KRAS G12V degradation in SW620 cells (Western blot, DC50)
# Assay type: cell-based
# reported.conditions: 24 hours
Reported values of DC50 for individual entries

- CCc1c(F)ccc2cc(O)cc(-c3ncc4c(N5CCC[C@@](C)(O)C5)nc(OCC5(CN6CCC(N7CCC(N8CCN(c9ccc%10c(c9)CN([C@H]9CCC(=O)NC9=O)C%10=O)CC8)CC7)CC6)CC5)nc4c3F)c12 [Compound 147]: < 1 nM
- CCc1c(F)ccc2cc(O)cc(-c3ncc4c(N5CCC[C@@](C)(O)C5)nc(OCC5(CN6CC7(CCC(F)(CN8CCN(c9ccc%10c(c9)CN([C@H]9CCC(=O)NC9=O)C%10=O)CC8)CC7)C6)CC5)nc4c3F)c12 [Compound 178]: < 1 nM

Any idea what its DC50 is? The compound is CCc1c(F)ccc2cc(O)cc(-c3ncc4c(N5CCC[C@@](C)(O)C5)nc(OCC5(CN6CCC7(CC6)CC(CN6CCN(c8ccc9c(c8)CN([C@H]8CCC(=O)NC8=O)C9=O)CC6)C7)CC5)nc4c3F)c12 [Compound 2] < 1 nM

Any idea what its DC50 is? The compound is CCc1cccc2cc(O)cc(-c3ncc4c(N5CCC[C@@](C)(O)C5)nc(OCC5(CN6CC(N7CC(N8CCN(c9ccc%10c(c9)CN([C@H]9CCC(=O)NC9=O)C%10=O)CC8)C7)C6)CC5)nc4c3F)c12 [Compound 168] 1 to 10 nM

====

# tested.on: KRAS G12V (Homo sapiens (Human), UniProt P01116, G12V)
# experimental.protocol: KRAS G12V degradation in SW620 cells (Western blot, DC50)
# Type: cell-based
# reported.conditions: 24 hours
test.readout: DC50

Example entries begin here.
• CCc1cccc2cc(O)cc(-c3ncc4c(N(C)C5CC5)nc(OCC5(CN6CCC(CN7CCN(c8ccc9c(c8)CN([C@H]8CCC(=O)NC8=O)C9=O)CC7)CC6)CC5)nc4c3F)c12 [Compound 15] = > 0.1 µM
• CCc1c(F)ccc2cc(O)cc(-c3ncc4c(N5CCC[C@@](C)(O)C5)nc(OCC5(CN6CCC7(CCN(CCc8cc(F)c(C9CCC(=O)NC9=O)c(F)c8)CC7)CC6)CC5)nc4c3F)c12 (some centres unmarked) [Compound 56] = 0.001 to 0.01 µM
• CCc1c(F)ccc2cc(O)cc(-c3ncc4c(N5CCC[C@@](C)(O)C5)nc(OCC5(CN6CC(N7CC8(CN(c9ccc%10c(c9)CN(C9CCC(=O)NC9=O)C%10=O)C8)C7)C6)CC5)nc4c3F)c12 (some centres unmarked) [Compound 158] = 0.001 to 0.01 µM
• CCc1c(F)ccc2cc(O)cc(-c3ncc4c(N5CCC[C@]6(CCO6)C5)nc(OCC5(CN6CCC(CN7CCN(c8cc(F)c(C9CCC(=O)NC9=O)c(F)c8)CC7)CC6)CC5)nc4c3F)c12 (some centres unmarked) [Compound 216] = 0.001 to 0.01 µM

Turning to the following compound.
Any idea what its DC50 is? The compound is Cc1cc(N)nc(-c2c(Cl)c3c4c(nc(OCC5(CN6CCC7(CC6)CC(CN6CCN(c8ccc9c(c8)CN([C@H]8CCC(=O)NC8=O)C9=O)CC6)C7)CC5)nc4c2F)N(C(C)c2cccnc2N)CCO3)c1C(F)(F)F (some centres unmarked) [Compound 5] > 0.1 µM

The reported measurements were obtained from patent US20250092039A1.
